Recorded measurements of PBM 8-mer E-score, one per entry
test system: muMax20 (Max(13-93) K31hArg/K57hArg, M65Nle); assay: PBM 8-mer E-score (E-score (rank enrichment, -0.5 to 0.5)); higher = stronger preferential binding
Whole data set: some 33,000 sequences, median “E-score (rank enrichment, -0.5 to 0.5)” near -0.0068, cut for the highest 2% near 0.24. This is one part of a sample in which the highest values are shown more often than they occur.
quantity: PBM 8-mer E-score

constructSequence: AATATTTG
reading: 0.167
--
constructSequence: GCTCCACA
reading: -0.0777
--
constructSequence: CAAGAAGG
reading: 0.158
--
constructSequence: TAATACCA
reading: 0.24
--
constructSequence: TCCACCCA
reading: 0.00135
--
constructSequence: AAAAGTAT
reading: 0.249
--
constructSequence: ACTTCAAC
reading: 0.11
--
constructSequence: AGCCGTTG
reading: -0.0362
--
constructSequence: ACATATCG
reading: 0.046
--
constructSequence: GAATATTA
reading: 0.137
--
constructSequence: ACCACCCC
reading: -0.0712
--
constructSequence: AGGTACAA
reading: 0.128
--
constructSequence: GAATATTC
reading: 0.195
--
constructSequence: AGATTATG
reading: 0.00982
--
constructSequence: AAAAGCTG
reading: 0.271
--
constructSequence: AAAAGCAT
reading: 0.243
--
constructSequence: AAATACTA
reading: 0.193
--
constructSequence: TCGAACGA
reading: 0.0488
--
constructSequence: CAGATCAA
reading: -0.0923
--
constructSequence: AGCGTGAC
reading: 0.117
--
constructSequence: CAATATTC
reading: 0.0728
--
constructSequence: GTGCTAGA
reading: 0.0749
--
constructSequence: CCTTTACG
reading: 0.24
--
constructSequence: CCTCGTTA
reading: -0.00353
--
constructSequence: ACAACCCC
reading: 0.0696
--
constructSequence: ATAATATA
reading: 0.263
--
constructSequence: CAATACCA
reading: 0.149
--
constructSequence: ACCTAGCG
reading: -0.048
--
constructSequence: CAAGGTGG
reading: -0.0168
--
constructSequence: ATATTAGA
reading: 0.302
--
constructSequence: GTATTAAA
reading: 0.178
--
constructSequence: ATGCCTCG
reading: 0.0473
--
constructSequence: CGATGCGA
reading: -0.117
--
constructSequence: CCTGTACA
reading: 0.0242
--
constructSequence: AACGTGAA
reading: 0.0196
--
constructSequence: GCCTCAGA
reading: -0.218
--
constructSequence: TAAGAACA
reading: 0.239
--
constructSequence: ATATTATC
reading: 0.0756
--
constructSequence: AAGAGACC
reading: 0.0547
--
constructSequence: CAAGAACA
reading: -0.0329
--
constructSequence: ACAAAGAC
reading: 0.226
--
constructSequence: CAATACTA
reading: 0.16
--
constructSequence: TCGGAACA
reading: -0.0705
--
constructSequence: CGGACAGC
reading: -0.13
--
constructSequence: AATTACGC
reading: 0.0652
--
constructSequence: ATAATATC
reading: 0.257
--
constructSequence: CCTGTGAC
reading: -0.0438
--
constructSequence: GCACCCCA
reading: -0.0239
--
constructSequence: AATGGATC
reading: -0.167
--
constructSequence: CCTTACGC
reading: 0.0271
--
constructSequence: GAAGAACA
reading: 0.127
--
constructSequence: ATGGTCGG
reading: 0.12
--
constructSequence: AGTATTTA
reading: 0.222
--
constructSequence: AAAAGTAA
reading: 0.12
--
constructSequence: ATTCTATG
reading: 0.109
--
constructSequence: AGCGTGAG
reading: 0.0998
--
constructSequence: CCCACCCG
reading: 0.186
--
constructSequence: CCCACCCC
reading: 0.258
--
constructSequence: GCCAAGCC
reading: -0.109
--
constructSequence: AGCTCTCG
reading: -0.155
--
constructSequence: CTATTAGA
reading: -0.0357
--
constructSequence: ATGCAACG
reading: 0.251
--
constructSequence: ACCAACAT
reading: 0.0339
--
constructSequence: ATAAAGAG
reading: 0.181
--
constructSequence: CTCCTTAC
reading: 0.0913
--
constructSequence: CCACCCCC
reading: -0.12
--
constructSequence: TAATACTA
reading: 0.252
--
constructSequence: ATACCTCC
reading: -0.0216
--
constructSequence: CCCACCCA
reading: 0.269
--
constructSequence: CCACCCCA
reading: 0.261
--
constructSequence: CTCATGTA
reading: 0.0357
--
constructSequence: CATGCCAA
reading: 0.158
--
constructSequence: AAAAGCAG
reading: -0.0145
--
constructSequence: ACCTGGCG
reading: -0.256
--
constructSequence: AGTGTGCG
reading: -0.149
--
constructSequence: ACATATCA
reading: 0.262
--
constructSequence: AACGTGGT
reading: 0.285
--
constructSequence: AATAGTAG
reading: 0.0461
--
constructSequence: TTGTACAA
reading: 0.284
--
constructSequence: GTATTAGA
reading: 0.213
--
constructSequence: CAAGGATA
reading: 0.00143
--
constructSequence: GTAATATA
reading: 0.267
--
constructSequence: ATAATATG
reading: 0.169
--
constructSequence: CCTTTACC
reading: 0.023
--
constructSequence: ATTTGATA
reading: 0.176
--
constructSequence: CCCGAATA
reading: -0.0449
--
constructSequence: ATAATAGA
reading: 0.0729
--
constructSequence: CCGGCCGC
reading: -0.23
--
constructSequence: CTAATATC
reading: 0.214
--
constructSequence: CGGCGGAA
reading: -0.0106
--
constructSequence: TAAGATTA
reading: 0.129

The measurements presented in this section are drawn from the supplement of paper PMC12636033.
